# Target Or System: Histone deacetylase 1 (Homo sapiens, UniProt Q13547)
# Sequence (Q13547 whole entry): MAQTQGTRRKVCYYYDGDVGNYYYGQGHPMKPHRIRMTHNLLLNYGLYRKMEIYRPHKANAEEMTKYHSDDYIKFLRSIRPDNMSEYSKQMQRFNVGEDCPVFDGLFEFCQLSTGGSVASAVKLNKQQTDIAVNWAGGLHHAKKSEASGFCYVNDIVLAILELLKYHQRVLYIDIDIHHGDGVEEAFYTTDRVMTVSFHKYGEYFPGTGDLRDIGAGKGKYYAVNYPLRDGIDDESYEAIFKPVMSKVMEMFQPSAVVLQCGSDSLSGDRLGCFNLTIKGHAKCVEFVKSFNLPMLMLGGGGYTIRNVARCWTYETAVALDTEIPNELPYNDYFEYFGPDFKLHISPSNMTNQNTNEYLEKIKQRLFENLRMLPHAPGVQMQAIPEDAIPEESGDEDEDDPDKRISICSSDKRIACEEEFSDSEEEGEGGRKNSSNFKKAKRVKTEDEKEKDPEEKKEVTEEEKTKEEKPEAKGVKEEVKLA
Quantity: pIC50
The quantity pIC50 is defined as the negative base-10 logarithm of the molar concentration.

Look at this compound and give its reported pIC50. `O=C(/C=C/c1cccc(S(=O)(=O)N[C@H](C(=O)Nc2cccc3ccccc23)c2ccccc2)c1)NO`
7.03

From: BindingDB's records for doi:10.1111/cbdd.12787
